All values here come from PubChem BioAssay (NCI).

growth inhibition values by entry
# protocol.details: NCI Yeast Anticancer Drug Screen. Data for the mlh1 rad18 strain (AID 175)
# test.context: S. cerevisiae mlh1 rad18 strain growth inhibition; at 5.0 µM (retest, dose inferred, filed as 0.5); hits give high values
# Description: Growth inhibition of yeast strains with defined genetic alterations is measured as a screen for potential anti-cancer activity. Selected strains with alterations in DNA damage repair or cell cycle control were exposed to compounds and growth inhibition was measured relative to vehicle treated controls. The strain used in this assay is mlh1 rad18
About 79,000 compounds went through this panel and 15% of them were active in at least one assay; those are over-represented in the sample as a whole.
Answer with a number only, understood to be in %.

CCC(C)/C(C)=N/NC(N)=O (stereo not drawn)	1
[Cl][Pt+2][Cl].[NH-]CC1(C[NH-])CCCCC1	3
CN(C)N1C(=O)SCC(c2ccccc2)(c2ccccc2)C1=O	12
S=c1[nH]nc(Cc2ccccc2)c(=S)[nH]1	53
Cc1cc(NCCCN(C)C)c2ccc3c(ccc4c(NCCCN(C)C)cc(C)nc43)c2n1	10
CCCC(=O)OC(OC(=O)CCC)c1ccc([N+](=O)[O-])o1	22
Nc1cccc2cc(Cl)cnc12	55
CC(C)(C(=O)NN)c1ccccc1	63
CC(C)(C)[Si](C)(C)OCC1OC(n2cnc3c(N)ncnc32)C2OC(=S)OC12 (stereo not drawn)	7
CCOc1ccccc1N1C(=O)CC(Sc2ccccc2N)C1=O (stereo not drawn)	37

Which growth inhibition reading was recorded for the compound O=C(O)[C@H]1[C@@H](C2CCCCC2)O[C@@H](C2CCCCC2)O[C@H]1C(F)(F)F ? -3

Which growth inhibition reading was recorded for the compound O=C(Nn1c(-c2ccccc2)nc2ccccc2c1=O)c1ccc(Cl)cc1 ? -46

Which growth inhibition reading was recorded for the compound CCOC(=O)C(NC(=O)c1ccccc1)[CH](c1ccccc1)[Sn]([c]1ccccc1)([c]1ccccc1)[c]1ccccc1 (stereo not drawn) ? -5
